B1: FBXO34 (parent)
chain: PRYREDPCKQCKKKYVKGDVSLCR

Variants of: B1
assay details: protein stability index of a GFP-peptide fusion (GPS, HEK-293T) (PSI 1-6); higher = more stable;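 further: lentivirally expressed fusions sorted by FACS into six bins by GFP to DsRed ratio, PSI derived from sequencing read proportions per bin multiplied by bin number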
test settings: c terminus: a fixed tail appended
measurement kind: protein stability index
A bare number is all that is needed in reply.

Solved cases below.
variant designation: K13L
measurement kind: protein stability index
recorded measurement: 2.94
//
variant designation: G18S
measurement kind: protein stability index
recorded measurement: 2.92
//
variant designation: G18Q
measurement kind: protein stability index
recorded measurement: 3.2
//
variant designation: D19Q
measurement kind: protein stability index
recorded measurement: 2.71
//
variant designation: C8W
measurement kind: protein stability index
recorded measurement: 3.02
//
variant designation: K12A
measurement kind: protein stability index
recorded measurement: 2.52
//
variant designation: K12D
measurement kind: protein stability index
recorded measurement: 2.57

Next item in the queue.
Briefly, protein stability index measured for "K9E" : 3.33
